- Tested on: Bacillus subtilis
- assay.info: Antimicrobial activity against Bacillus subtilis after 24 hr by serial dilution method
- Assay type: functional

{"molecule": "COc1cccc(OC)c1/C=N/NC(=O)c1ccncc1", "-logMIC": 2.06}
{"molecule": "COc1cccc(OC)c1/C=N/N(C(=O)c1ccccc1)C(=O)c1ccncc1", "-logMIC": 2.49}
{"molecule": "O=C(c1ccccc1)N(/N=C/c1ccccc1O)C(=O)c1ccncc1", "-logMIC": 2.44}
{"molecule": "NNC(=O)c1ccncc1", "-logMIC": 1.74}
{"molecule": "CSc1ccc(/C=N/NC(=O)c2ccncc2)cc1", "-logMIC": 2.04}
{"molecule": "O=C(NNC(=O)c1ccc(Cl)cc1)c1ccncc1", "-logMIC": 2.34}
{"molecule": "COc1cc(/C=N/NC(=O)c2ccncc2)cc(OC)c1OC", "-logMIC": 2.4}
{"molecule": "Cc1ccc(/C=N/N(C(=O)c2ccccc2)C(=O)c2ccncc2)cc1", "-logMIC": 2.14}
{"molecule": "CC(Cl)C(=O)NNC(=O)c1ccncc1 (stereo unspecified)", "-logMIC": 1.96}
{"molecule": "CCOc1cc(/C=N/NC(=O)c2ccncc2)ccc1O", "-logMIC": 2.06}
{"molecule": "CSc1ccc(/C=N/N(C(=O)c2ccccc2)C(=O)c2ccncc2)cc1", "-logMIC": 2.18}
{"molecule": "O=C(N/N=C/c1c(O)ccc2ccccc12)c1ccncc1", "-logMIC": 2.07}
{"molecule": "O=C(NNC(=O)c1cc([N+](=O)[O-])ccc1Cl)c1ccncc1", "-logMIC": 2.11}
{"molecule": "CCn1cc(C(=O)O)c(=O)c2cc(F)c(N3CCNCC3)cc21", "-logMIC": 2.61}
{"molecule": "Cc1ccc(/C=N/NC(=O)c2ccncc2)cc1", "-logMIC": 1.98}
{"molecule": "O=C(N/N=C/c1ccccc1O)c1ccncc1", "-logMIC": 1.98}
{"molecule": "CCOc1cc(/C=N/N(C(=O)c2ccccc2)C(=O)c2ccncc2)ccc1O", "-logMIC": 2.19}
{"molecule": "COc1cc(/C=N/NC(=O)c2ccncc2)ccc1O [FTIVAZIDE]", "-logMIC": 2.04}
{"molecule": "C/C=C/C=N/NC(=O)c1ccncc1", "-logMIC": 1.88}
{"molecule": "O=C(N/N=C/c1c[nH]c2ccccc12)c1ccncc1", "-logMIC": 2.02}
{"molecule": "COc1cc(/C=N/N(C(=O)c2ccccc2)C(=O)c2ccncc2)ccc1O", "-logMIC": 2.18}

---

- Tested on: Vaccinia virus
- assay.info: Antiviral activity against Vaccinia virus infected human HEL cells assessed as inhibition of virus-induced cytopathicity
- Assay type: functional, organism-based
- condition.notes: Orthopoxvirus vaccinia
# EC50 values compiled below
metric.name: EC50

{"chem.smiles": "C/C=C/C=N/NC(=O)c1ccncc1", "metric.name": "EC50", "measured.result": "> 20 µg/mL"}
{"chem.smiles": "CSc1ccc(/C=N/N(C(=O)c2ccccc2)C(=O)c2ccncc2)cc1", "metric.name": "EC50", "measured.result": "> 100 µg/mL"}
{"chem.smiles": "CSc1ccc(/C=N/NC(=O)c2ccncc2)cc1", "metric.name": "EC50", "measured.result": "> 100 µg/mL"}

---

# EC50 values compiled below
- Tested on: Punta Toro virus
- assay.info: Antiviral activity against Punta Toro virus infected Vero cells assessed as inhibition of virus-induced cytopathicity
- Type: functional, organism-based
metric.name: EC50

{"compound": "C/C=C/C=N/NC(=O)c1ccncc1", "measured.result": "> 20 µg/mL"}
{"compound": "Cc1ccc(/C=N/NC(=O)c2ccncc2)cc1", "measured.result": "> 20 µg/mL"}
{"compound": "CSc1ccc(/C=N/NC(=O)c2ccncc2)cc1", "measured.result": "> 100 µg/mL"}
{"compound": "COc1cc(/C=N/N(C(=O)c2ccccc2)C(=O)c2ccncc2)ccc1O", "measured.result": "> 100 µg/mL"}
{"compound": "COc1cc(/C=N/NC(=O)c2ccncc2)ccc1O [FTIVAZIDE]", "measured.result": "> 100 µg/mL"}
{"compound": "Cc1ccc(/C=N/N(C(=O)c2ccccc2)C(=O)c2ccncc2)cc1", "measured.result": "> 20 µg/mL"}
{"compound": "COc1cc(/C=N/NC(=O)c2ccncc2)cc(OC)c1OC", "measured.result": "> 100 µg/mL"}
{"compound": "O=C(N/N=C/c1c(O)ccc2ccccc12)c1ccncc1", "measured.result": "> 0.8 µg/mL"}
{"compound": "CCOc1cc(/C=N/NC(=O)c2ccncc2)ccc1O", "measured.result": "> 100 µg/mL"}
{"compound": "CCOc1cc(/C=N/N(C(=O)c2ccccc2)C(=O)c2ccncc2)ccc1O", "measured.result": "> 100 µg/mL"}
{"compound": "CSc1ccc(/C=N/N(C(=O)c2ccccc2)C(=O)c2ccncc2)cc1", "measured.result": "> 100 µg/mL"}
{"compound": "COc1cccc(OC)c1/C=N/N(C(=O)c1ccccc1)C(=O)c1ccncc1", "measured.result": "> 20 µg/mL"}
{"compound": "COc1cccc(OC)c1/C=N/NC(=O)c1ccncc1", "measured.result": "> 20 µg/mL"}
{"compound": "O=C(N/N=C/c1c[nH]c2ccccc12)c1ccncc1", "measured.result": "> 100 µg/mL"}
